These records show pIC50 for Cathepsin B (Bos taurus, UniProt P07688).
Give only the number. pIC50 is defined as minus log10 of concentration in molar units.

COc1ccccc1/C=C/C(=O)N[C@@H](COC(=O)c1ccccc1)C(=O)NC1CCCCC1 3.77

Asked: pIC50 for COc1cc(/C=C/C(=O)N[C@H](COC(=O)c2ccccc2)C(=O)NC2CCCCC2)cc(OC)c1OC ?
Given back: 3.30

====

Catalogue of molecules with associated inhibition
Target: Cathepsin B (Bos taurus) (UniProt P07688)
Assay: Inhibition of bovine spleen cathepsin B using Z-Arg-Arg-MCA as substrate at 1 mM incubated for 10 mins
State the answer as a number, implicitly in %.

COc1cccc(/C=C/C(=O)N[C@@H](COC(=O)c2ccccc2)C(=O)NC2CCCCC2)c1 36
O=C(/C=C/c1ccc(OC(=O)c2ccccc2)cc1)N[C@@H](COC(=O)c1ccccc1)C(=O)NC1CCCCC1 35
COc1cc(/C=C/C(=O)N[C@H](COC(=O)c2ccccc2)C(=O)NC2CCCCC2)cc(OC)c1 22

// below: inhibition requested for another molecule
Asked: Look up inhibition: COc1cc(/C=C/C(=O)N[C@@H](COC(=O)c2ccccc2)C(=O)NC2CCCCC2)cc(OC)c1OC
Given back: 21

Every entry's value here was drawn from ChEMBL document CHEMBL3763015.
